Please consider the recorded pKi for androgen receptor (Rattus norvegicus (Rat), UniProt P15207) in what follows.
Remember, pKi is on a log scale: it is -log10 of the molar concentration.

# count of solved cases: 5
CC(C)(C(=O)Nc1ccc(C#N)c(C(F)(F)F)c1)n1ccc2c(F)cccc21 [Example 4]	6.31
CC(C)(C(=O)Nc1ccc(C#N)c(C(F)(F)F)c1)n1ccc2cc(C(F)(F)F)ccc21 [Example 8]	6.36
CC(C)(C(=O)Nc1ccc(C#N)c(C(F)(F)F)c1)n1ccc2cc(F)ccc21 [Example 3]	6.44
CC(C)(C(=O)Nc1ccc(C#N)c(Cl)c1)n1ccc2cc(F)ccc21 [Example 12]	6.45
CC(C)(C(=O)Nc1ccc(C#N)c(C(F)(F)F)c1)n1ccc2ccc(F)cc21 [Example 5]	6.50

Asked: Any idea what its pKi is? The compound is CC(C)(C(=O)Nc1ccc(C#N)c(C(F)(F)F)c1)n1ccc2cc([N+](=O)[O-])ccc21 [Example 6]
Given back: 6.38

Asked: Any idea what its pKi is? The compound is CC(C)(C(=O)Nc1ccc(C#N)c(C(F)(F)F)c1)n1ccc2cc(C#N)ccc21 [Example 9]
Given back: 6.35

Asked: Any idea what its pKi is? The compound is CC(C)(C(=O)Nc1ccc(C#N)c(C(F)(F)F)c1)N1CCc2cc(F)ccc21 [Example 10]
Given back: 6.41

Asked: Any idea what its pKi is? The compound is CC(C)(C(=O)Nc1ccc(C#N)c(C(F)(F)F)c1)N1CCc2cc(F)c(F)cc21 [Example 11]
Given back: 6.30

----------
Please consider the recorded pIC50 for androgen receptor (Rattus norvegicus (Rat), UniProt P15207) in what follows.
Remember, pIC50 is on a log scale: it is -log10 of the molar concentration.

# count of solved cases: 3
CC(C)(C(=O)Nc1ccc(C#N)c(C(F)(F)F)c1)n1ccc2cc(C(F)(F)F)ccc21 [Example 8]	6.45
CC(C)(C(=O)Nc1ccc(C#N)c(C(F)(F)F)c1)n1ccc2cc(F)c(-c3ccccc3)cc21 [Example 2]	6.47
CC(C)(C(=O)Nc1ccc(C#N)c(C(F)(F)F)c1)N1CCc2cc(F)c(F)cc21 [Example 11]	6.30

Asked: Any idea what its pIC50 is? The molecule is CC(C)(C(=O)Nc1ccc(C#N)c(C(F)(F)F)c1)n1cc(F)c(F)n1 [Example 26]
Given back: 7.12

Asked: Any idea what its pIC50 is? The molecule is CC(C)(C(=O)Nc1ccc(C#N)c(C(F)(F)F)c1)n1cc(-c2ccc(F)cc2)cn1 [Example 14]
Given back: 6.12

Asked: Any idea what its pIC50 is? The molecule is CC(C)(C(=O)Nc1ccc(C#N)c(C(F)(F)F)c1)n1cc(-c2ccc(F)cc2)c(F)n1 [Example 13]
Given back: 6.38

Asked: Any idea what its pIC50 is? The molecule is CC(C)(C(=O)Nc1ccc(C#N)c(C(F)(F)F)c1)n1cc(Cl)cn1 [Example 17]
Given back: 6.94

Asked: Any idea what its pIC50 is? The molecule is N#Cc1ccc(NC(=O)C2(n3cc(F)cn3)CCC2)cc1C(F)(F)F [Example 23]
Given back: 6.94

Asked: Any idea what its pIC50 is? The molecule is CC(C)(C(=O)Nc1ccc(C#N)c(C(F)(F)F)c1)n1ccc2cc(C#N)ccc21 [Example 9]
Given back: 6.63

----------
Please consider the recorded IC50 for androgen receptor (Rattus norvegicus (Rat), UniProt P15207) in what follows.
Use µM as the unit, but write only the number.

# count of solved cases: 4
CC(C)(C(=O)Nc1ccc(C#N)c(C(F)(F)F)c1)n1cc(Cl)c(F)n1	0.105
CC(C)(C(=O)Nc1ccc(C#N)c(C(F)(F)F)c1)N1CCc2cc(F)ccc21	0.437
CC(C)(C(=O)Nc1ccc(C#N)c(C(F)(F)F)c1)n1cc(Br)c(F)n1	0.091
CC(C)(C(=O)Nc1ccc(C#N)c(C(F)(F)F)c1)n1ccc2cc(F)ccc21	0.215

Asked: Recall the recorded IC50 for "CC(C)(C(=O)Nc1ccc(C#N)c(Cl)c1)n1ccc2cc(F)ccc21" with androgen receptor (Rattus norvegicus (Rat), UniProt P15207) and state it.
Sequence (P15207 whole entry S389L): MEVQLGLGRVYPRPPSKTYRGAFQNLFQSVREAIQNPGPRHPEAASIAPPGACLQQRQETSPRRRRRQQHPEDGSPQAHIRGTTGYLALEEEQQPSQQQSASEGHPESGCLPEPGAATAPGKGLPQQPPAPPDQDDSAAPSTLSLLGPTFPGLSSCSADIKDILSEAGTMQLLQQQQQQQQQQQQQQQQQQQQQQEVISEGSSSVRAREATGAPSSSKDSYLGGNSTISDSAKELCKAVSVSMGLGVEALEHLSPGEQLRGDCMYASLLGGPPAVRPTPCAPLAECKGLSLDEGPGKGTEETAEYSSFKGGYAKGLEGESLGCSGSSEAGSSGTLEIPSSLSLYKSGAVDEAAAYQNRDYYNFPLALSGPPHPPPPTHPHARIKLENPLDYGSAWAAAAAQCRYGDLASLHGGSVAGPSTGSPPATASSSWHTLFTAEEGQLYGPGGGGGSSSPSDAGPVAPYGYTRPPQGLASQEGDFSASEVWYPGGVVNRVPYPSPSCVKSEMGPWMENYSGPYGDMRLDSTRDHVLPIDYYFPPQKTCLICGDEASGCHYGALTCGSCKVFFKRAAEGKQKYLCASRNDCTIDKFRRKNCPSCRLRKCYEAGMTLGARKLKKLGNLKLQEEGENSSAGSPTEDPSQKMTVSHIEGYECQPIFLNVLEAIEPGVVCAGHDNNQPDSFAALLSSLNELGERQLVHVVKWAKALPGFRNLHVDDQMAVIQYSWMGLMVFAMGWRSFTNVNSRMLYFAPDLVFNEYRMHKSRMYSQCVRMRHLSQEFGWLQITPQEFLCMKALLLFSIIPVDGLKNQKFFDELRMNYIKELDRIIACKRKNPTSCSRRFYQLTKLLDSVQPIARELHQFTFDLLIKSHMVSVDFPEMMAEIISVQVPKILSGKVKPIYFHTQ
Given back: 0.205

Asked: Recall the recorded IC50 for "CC(C)(C(=O)Nc1ccc(C#N)c(C(F)(F)F)c1)n1cc(C#N)c(Cl)n1" with androgen receptor (Rattus norvegicus (Rat), UniProt P15207) and state it.
Given back: 0.088

Asked: Recall the recorded IC50 for "CC(C)(C(=O)Nc1ccc(C#N)c(C(F)(F)F)c1)n1ccc(F)n1" with androgen receptor (Rattus norvegicus (Rat), UniProt P15207) and state it.
Given back: 0.147

Asked: Recall the recorded IC50 for "CC(C)(C(=O)Nc1cnc(C#N)c(C(F)(F)F)c1)n1cc(F)cn1" with androgen receptor (Rattus norvegicus (Rat), UniProt P15207) and state it.
Given back: 0.073

Asked: Recall the recorded IC50 for "CC(C)(C(=O)Nc1ccc(C#N)c(C(F)(F)F)c1)n1ccc2c(F)cccc21" with androgen receptor (Rattus norvegicus (Rat), UniProt P15207) and state it.
Given back: 0.246

Asked: Recall the recorded IC50 for "CC(C)(C(=O)Nc1ccc(C#N)c(C(F)(F)F)c1)n1ccc2cc([N+](=O)[O-])ccc21" with androgen receptor (Rattus norvegicus (Rat), UniProt P15207) and state it.
Given back: 0.261

Asked: Recall the recorded IC50 for "CC(C)(C(=O)Nc1ccc(C#N)c(C(F)(F)F)c1)n1ccc2c(F)cc(-c3ccc(F)cc3)cc21" with androgen receptor (Rattus norvegicus (Rat), UniProt P15207) and state it.
Given back: 0.546

Asked: Recall the recorded IC50 for "CC(C)(C(=O)Nc1ccc(C#N)c(C(F)(F)F)c1)n1ccc2ccc(F)cc21" with androgen receptor (Rattus norvegicus (Rat), UniProt P15207) and state it.
Given back: 0.227

Asked: Recall the recorded IC50 for "CC(C)(C(=O)Nc1ccc(C#N)c(C(F)(F)F)c1)n1cc(F)cn1" with androgen receptor (Rattus norvegicus (Rat), UniProt P15207) and state it.
Given back: 0.125
